measurement target: Mitogen-activated protein kinase 9 (Homo sapiens)
Sequence (P45984 whole entry): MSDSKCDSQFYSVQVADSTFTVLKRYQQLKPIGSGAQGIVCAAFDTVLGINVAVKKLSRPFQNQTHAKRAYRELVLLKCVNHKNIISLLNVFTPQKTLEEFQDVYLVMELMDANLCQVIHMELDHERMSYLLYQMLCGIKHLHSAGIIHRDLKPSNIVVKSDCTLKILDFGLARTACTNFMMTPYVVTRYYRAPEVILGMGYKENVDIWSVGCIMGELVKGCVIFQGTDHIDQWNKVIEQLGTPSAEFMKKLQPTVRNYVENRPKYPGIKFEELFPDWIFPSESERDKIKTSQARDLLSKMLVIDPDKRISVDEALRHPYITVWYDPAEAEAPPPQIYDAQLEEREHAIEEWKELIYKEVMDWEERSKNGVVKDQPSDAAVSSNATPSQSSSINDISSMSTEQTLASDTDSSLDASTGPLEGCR
assay explanation: Inhibition of JNK2
quantity measured: IC50 (µM)
One number for each entry, in µM.

Lab book: IC50 of `Cc1nn(C)c2c1c(=O)c1cc(Cl)ccc1n2O` noted as 3.1

---

measurement target: Mitogen-activated protein kinase 1 (Homo sapiens, UniProt P28482)
Sequence (P28482 whole entry): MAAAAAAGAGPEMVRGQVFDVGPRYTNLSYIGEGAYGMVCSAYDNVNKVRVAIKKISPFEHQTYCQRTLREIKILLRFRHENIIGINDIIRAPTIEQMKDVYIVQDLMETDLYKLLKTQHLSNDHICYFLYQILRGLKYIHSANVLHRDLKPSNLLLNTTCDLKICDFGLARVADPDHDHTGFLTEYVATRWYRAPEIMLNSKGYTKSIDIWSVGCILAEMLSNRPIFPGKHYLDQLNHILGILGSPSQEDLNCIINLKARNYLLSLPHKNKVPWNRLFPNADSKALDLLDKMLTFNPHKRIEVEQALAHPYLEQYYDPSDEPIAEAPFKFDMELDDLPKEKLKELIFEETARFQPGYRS
assay explanation: Inhibition of ERK2
quantity measured: IC50

Lab book: IC50 of `Cc1nn(C)c2c1c(=O)c1cc(Cl)ccc1n2O` noted as > 50 µM

---

Field: pIC50. Provide a value for each of the molecules that follow.
measurement target: Mitogen-activated protein kinase 8 (Homo sapiens)
Sequence (P45983 whole entry): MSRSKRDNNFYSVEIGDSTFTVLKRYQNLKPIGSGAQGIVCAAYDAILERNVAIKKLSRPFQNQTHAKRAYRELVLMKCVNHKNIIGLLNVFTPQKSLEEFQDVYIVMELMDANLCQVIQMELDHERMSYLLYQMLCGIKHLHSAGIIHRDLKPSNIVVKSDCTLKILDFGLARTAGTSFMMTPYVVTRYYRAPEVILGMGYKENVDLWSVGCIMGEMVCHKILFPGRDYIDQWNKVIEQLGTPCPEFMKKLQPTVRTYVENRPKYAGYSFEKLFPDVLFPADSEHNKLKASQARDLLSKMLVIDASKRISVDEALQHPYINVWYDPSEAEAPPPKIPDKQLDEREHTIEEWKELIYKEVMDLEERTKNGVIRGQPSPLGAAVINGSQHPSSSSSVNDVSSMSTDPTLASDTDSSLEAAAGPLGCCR
assay explanation: Inhibition of JNK1
Numbers only, as −log10 of the molar value.

CCNC(=O)NCCCc1nn(C)c2c1c(=O)c1cc(Cl)ccc1n2O
6.30
Cc1nn(C)c2c1c(=O)c1cc(Br)ccc1n2O
6.04
CCc1nn(C)c2c1c(=O)c1cc(Cl)ccc1n2O
6.02
CC(=O)NCCc1nn(C)c2c1c(=O)c1cc(Cl)ccc1n2O
6.11
CCOC(=O)NCCc1nn(C)c2c1c(=O)c1cc(Cl)ccc1n2O
6.37
COCCc1nn(C)c2c1c(=O)c1cc(Cl)ccc1n2O
5.62

Give one value of pIC50 per listed molecule.
1. Cn1nc(CCCC(=O)O)c2c(=O)c3cc(Cl)ccc3n(O)c21
2. CCCCc1nn(C)c2c1c(=O)c1cc(Cl)ccc1n2O
3. CCn1nc(C)c2c(=O)c3cc(Cl)ccc3n(O)c21
4. CNC(=O)Cn1nc(C)c2c(=O)c3cc(Cl)ccc3n(O)c21
5. COn1c2ccc(Cl)cc2c(=O)c2c(C)nn(C)c21
6. Cn1c2[n+]([O-])c3ccc(Cl)cc3c(=O)c-2c2n1C(=O)NCC2

[5.56, 6.28, 5.38, 5.06, 5.34, 6.54]

Give one value of pIC50 per listed molecule.
1. Cn1nc(C(F)(F)F)c2c(=O)c3cc(Cl)c(Cl)cc3n(O)c21
2. Cn1nc(CCN)c2c(=O)c3cc(Cl)ccc3n(O)c21

1. 5.29
2. 5.55
